List of LD50 values.
method description: in vivo
Format: in vivo
applied conditions: rat, in vivo, po; read-out: LD 50 (Litchfield and Wilcoxon)
Answer format reminder: number followed by unit.

These recorded examples may help you get a feel for the data.
INSERT INTO results (molecule, assay_value) VALUES
  ('CN1c2c(C(=O)NCCCNC3CCCCC3)nn(-c3ccccc3)c2-c2ccccc2S1(=O)=O', '1090 mg/kg'),
  ('CN1c2c(C(=O)NCCCN3CCOCC3)nn(-c3ccccc3)c2-c2ccccc2S1(=O)=O', '1080 mg/kg'),
  ('CCN(CC)CCNC(=O)c1nn(-c2cccc(F)c2)c2c1N(C)S(=O)(=O)c1ccccc1-2', '2220 mg/kg');

From here, focus on the item given below.
Query block: // returns reported LD50 for input CCN1CCCC1CNC(=O)c1nn(-c2ccccc2)c2c1N(C)S(=O)(=O)c1ccccc1-2 (stereo not shown)
Result block: 1060 mg/kg
